system: transglutaminase (TGase I); experiment: Transglutaminase (Tgase) ELISA assay in cultured keratinocytes with retinol and boosters; format: cell-based, human; details: compound 2 alone, with retinol; concentration one log below IC20
Property Label: TG as % C Compd 2

Sample records with TG as % C Compd 2:
# Molecule, Measured
records = [
    ("O=C(O)CCCCCCCCCCCCCCC(=O)O", "125 % C"),
    ("CCCCCCCC/C=C/CCCCCCCC(=O)O", "144 % C"),
    ("CC1(C)[C@@H](OC(=O)CCC(=O)O)CC[C@]2(C)[C@H]3C(=O)C=C4[C@@H]5C[C@@](C)(C(=O)O)CC[C@]5(C)CC[C@@]4(C)[C@]3(C)CC[C@@H]12 [Carbenoxolone, reference compound]", "164 % C"),
]

// next entry
Exercise: Field request: TG as % C Compd 2 | item: CC(C)CCCCCCCCCCCCCCC(=O)O
Solution: 146 % C

Just for reference, patent US8409550B2 is where these values come from.
